Value source: BigSolDB 2.1

settings: in isopropanol, 313.15 K
observable: solubility (mole fraction)
Number only, please.

Per the records, this molecule ( `CCC[C@@H]1CC(=O)N([C@@H](CC)C(N)=O)C1` ) has solubility (mole fraction) equal to 0.392

====

details: in methanol, 313.15 K
observable: solubility (mole fraction)
Number, no unit, nothing else.

Input `CCC[C@@H]1CC(=O)N([C@@H](CC)C(N)=O)C1` . Output solubility (mole fraction): 0.497

====

details: in ethyl acetate, 293.15 K
observable: solubility (mole fraction)
Write the value as a bare number.

`CCC[C@@H]1CC(=O)N([C@@H](CC)C(N)=O)C1` yielded solubility (mole fraction) of 0.113

====

details: in isopropanol, 298.15 K
observable: solubility (mole fraction)
Keep it simple and answer with nothing but the number.

Briefly, solubility (mole fraction) measured for `CCC[C@@H]1CC(=O)N([C@@H](CC)C(N)=O)C1` : 0.25

====

conditions: in diisopropyl ether, 298.15 K
observable: solubility (mole fraction)
Respond using a number only.

// field: solubility (mole fraction); key: `CCC[C@@H]1CC(=O)N([C@@H](CC)C(N)=O)C1` ; value = 0.00513

====

details: in isopropanol, 323.15 K
observable: solubility (mole fraction)
Lab note: write the figure by itself, no unit.

Lab note: measured solubility (mole fraction) of `CCC[C@@H]1CC(=O)N([C@@H](CC)C(N)=O)C1` was 0.51

====

conditions: in ethanol, 298.15 K
observable: solubility (mole fraction)

Sample `CCC[C@@H]1CC(=O)N([C@@H](CC)C(N)=O)C1` ; solubility (mole fraction) observed: 0.328

====

details: in MTBE, 288.15 K
observable: solubility (mole fraction)
Enter a number only.

Query `CCC[C@@H]1CC(=O)N([C@@H](CC)C(N)=O)C1` yields solubility (mole fraction) of 0.0181

====

conditions: in isopropyl acetate, 303.15 K
observable: solubility (mole fraction)
Output spec: single numeric token, no unit.

Measured solubility (mole fraction) of `CCC[C@@H]1CC(=O)N([C@@H](CC)C(N)=O)C1` : 0.154

====

conditions: in ethanol, 323.15 K
observable: solubility (mole fraction)
Response field accepts a number only; no unit should be typed.

Looking up `CCC[C@@H]1CC(=O)N([C@@H](CC)C(N)=O)C1` , I see its solubility (mole fraction) listed as 0.576

====

conditions: in n-propanol, 288.15 K
observable: solubility (mole fraction)
Number, no unit, nothing else.

Looking up `CCC[C@@H]1CC(=O)N([C@@H](CC)C(N)=O)C1` , I see its solubility (mole fraction) listed as 0.204

====

details: in diisopropyl ether, 308.15 K
observable: solubility (mole fraction)
Write the value as a bare number.

Summary for this compound, `CCC[C@@H]1CC(=O)N([C@@H](CC)C(N)=O)C1` : solubility (mole fraction) is 0.00879

====

conditions: in ethyl formate, 313.15 K
observable: solubility (mole fraction)
Answer with a bare number; do not write a unit.

Record `CCC[C@@H]1CC(=O)N([C@@H](CC)C(N)=O)C1` . Reported solubility (mole fraction): 0.393

====

settings: in isopropanol, 293.15 K
observable: solubility (mole fraction)
Give a plain numeric answer without units written out.

`CCC[C@@H]1CC(=O)N([C@@H](CC)C(N)=O)C1` yielded solubility (mole fraction) of 0.219
